I'd appreciate it if you could supply composite z-score values for the items below.
- Tgt: Torsin-1A-interacting protein 2 (Homo sapiens) (UniProt Q8NFQ8)
- Sequence (Q8NFQ8 whole entry, looked up): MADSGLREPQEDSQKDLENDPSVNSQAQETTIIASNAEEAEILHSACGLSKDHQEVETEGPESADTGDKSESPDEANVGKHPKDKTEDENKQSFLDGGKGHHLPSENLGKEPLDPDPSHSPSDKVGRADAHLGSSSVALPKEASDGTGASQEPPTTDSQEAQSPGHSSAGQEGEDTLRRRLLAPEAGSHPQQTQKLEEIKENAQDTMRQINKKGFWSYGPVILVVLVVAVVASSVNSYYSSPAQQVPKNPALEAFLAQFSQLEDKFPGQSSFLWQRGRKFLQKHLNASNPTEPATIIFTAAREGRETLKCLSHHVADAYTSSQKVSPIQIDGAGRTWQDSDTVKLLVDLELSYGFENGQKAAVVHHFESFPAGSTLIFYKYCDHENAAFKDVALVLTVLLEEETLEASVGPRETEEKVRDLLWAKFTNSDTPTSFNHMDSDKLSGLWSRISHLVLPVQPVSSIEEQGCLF
- Assay details: LULL1 binders on small-molecule microarray, primary screen, cell lysate, human LULL1 lysate, 635/667 nm fluorescence (AID 1092);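 further: probe is lysate of COS7 cells overexpressing human LULL1; score merges per-feature 667 nm fluorescence with signal-to-noise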
- Conditions used: hLULL1 lysate binding, 635 nm fluorescence, higher = more signal
Answers are plain numbers.

> print(dat)
                                   molecule  recorded.measurement
1  CC(C)C[C@@H]1NC(=O)[C@H]2C[C@@H](C(=O)NCCCCCNC(=O)CS)[C@@H](c3ccc(O)cc3)N2C1=O                  2.11

Hi there! I need composite z-score for each item below, if you can.
1. COc1ccc(NN2C(C(O)c3ccc(OC)cc3)C=CC3C(=O)N(C4CCCCC4)C(=O)C32)cc1 (centres undefined)
2. O=C1OCCC=C[C@H]2OC34C=CCN(CCN5CCOCC5)C(=O)[C@H]3N(CCCO)C(=O)[C@@H]4C12 (some centres undefined)
3. CN(C)C(=O)[C@@]1(CCS(=O)(=O)c2ccccc2)N=C(c2ccc(OCCCO)cc2)O[C@H]1c1ccccc1N=[N+]=[N-]

Out:
1: 2.12; 2: 2.98; 3: 3.1
